experiment: NCI Yeast Anticancer Drug Screen. Data for the rad50EPP+ strain (AID 151);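 further: 0% = growth of vehicle-treated control cultures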; details: S. cerevisiae rad50 mutant strain, at 3.7 µM, hits give high values
About 79,000 compounds went through this panel and 15% of them were active in at least one assay; those are over-represented in the sample as a whole.
observedProperty: growth inhibition (%)
Give bare numbers, in %.

CSC(=S)Nc1cc(C)ccn1 :: -15
O=C1c2ccccc2C(=O)c2cc(CBr)ccc21 :: 56
COCCOC(=O)CCn1cc(F)c(=O)[nH]c1=O :: 3
CC(=O)ON1C(=O)c2cccc3cccc(c23)C1=O :: 0

For each entry beneath this line, provide reported growth inhibition.
1. OCC1OC(OCC(O)C(O)C(O)C(/C=N/Nc2ccccc2)=N/Nc2ccccc2)C(O)C(O)C1O (configuration not stated)
2. CCCc1cc(C(=O)OCC)cc(CCC)c1O
3. N#Cc1ccc(C2NN=CC23C(=O)c2ccccc2OC3c2ccccc2)cc1 (configuration not stated)
4. C[C@@H]1C[C@H]2[C@@H]3CCC4=CC(=O)C=C[C@]4(C)[C@@]3(Cl)[C@@H](Cl)C[C@]2(C)[C@@]1(O)C(=O)COP(=O)(O)O
5. CC1=NN(c2cccc(Cl)c2)C(=O)C1

Completion:
1. 30
2. 3
3. 0
4. -8
5. -50

For each entry beneath this line, provide reported growth inhibition.
1. Cc1ccc(S(=O)(=O)NCCSS(=O)(=O)c2ccc(C)cc2)cc1
2. O=C(CCCN1CCC2(CC1)CC(=O)N(N1CCCCCC1)C2=O)c1ccc(F)cc1
3. CC(C)NC(=O)OCc1c(COC(=O)NC(C)C)c(-c2ccc(Cl)c(Cl)c2)n2c1CCC2
4. O=C1Nc2ccc(Cl)c(I)c2C1=O
5. Oc1ccc2ccccc2c1C(c1ccc(Cl)cc1)c1c(O)ccc2ccccc12
6. Cn1ccnc1Oc1ccc(Cl)cc1
7. COc1cc2c3c(cccc3c1)C(=O)N(CCN(C)C)C2=O

Completion:
[6, -2, -18, 35, -61, -22, 1]

For each entry beneath this line, provide reported growth inhibition.
1. COc1ccccc1/C=C1\Sc2scc(-c3cccc([N+](=O)[O-])c3)[n+]2C1=O
2. Cc1nc(-c2ccccc2)c(-c2ccccc2)s1
3. CC(=O)Nc1ccc(SC(C)=O)cc1
4. Cn1c2ccccc2c(=O)c2cc(NC(=O)CCCCC(=O)Nc3ccc4c(c3)c(=O)c3ccccc3n4C)ccc21
5. CCCCCCCCNC(=O)C1=C(C)NC(C)=C(C(=O)NCCCCCCCC)C1
6. NC(=O)NN=C(CS)CS
7. CCOC(=O)[C@H]1Nc2ccccc2C2c3ccccc3CC21 (some centres not stated)

Completion:
1. 80
2. 4
3. -22
4. 4
5. -1
6. -1
7. 0

For each entry beneath this line, provide reported growth inhibition.
1. Cc1ccc(Nc2nc3c(=O)n(C)c(=O)n(C)c3nc2Nc2ccc(C)cc2)cc1
2. CC(=O)OCCOCNC(=S)N/N=C(\C)c1cnccn1
3. Cc1nc(-[n+]2nc(-c3ccncc3)nn2-c2ccccc2)sc1C
4. O=C1OC(=O)C2CCCC3CCCC1C32 (configuration not stated)
5. O=C1c2ccccc2-c2n[nH]c3cccc1c23
6. CCc1ncnc2cc(OCC3CO3)c(OC)cc12 (configuration not stated)

Completion:
1. -2
2. 9
3. 16
4. 54
5. 69
6. 31

* * *

Assay: NCI Yeast Anticancer Drug Screen. Data for the mec2-1 strain (AID 157)
Conditions: S. cerevisiae mec2-1 strain, at 100.0 µM, hits give high values
Description: Growth inhibition of yeast strains with defined genetic alterations is measured as a screen for potential anti-cancer activity. Selected strains with alterations in DNA damage repair or cell cycle control were exposed to compounds and growth inhibition was measured relative to vehicle treated controls. The strain used in this assay is mec2-1
Compounds without any hit were thinned out: in the full panel of roughly 79,000, 15% have a hit.
Each entry gets not fulfilled if its growth inhibition stays under 20%, and fulfilled if its growth inhibition is 20% or above.

CN1c2ccc(Cl)cc2C(=O)NC1c1ccc([N+](=O)[O-])s1 (stereo unspecified) :: fulfilled
Cc1cc(O)cc(O)c1N=Nc1ccc([N+](=O)[O-])cc1 :: fulfilled
BrCc1cccc2ccc3cccc(CBr)c3c12 :: not fulfilled
CC(O)C(O)C(O)C(/C=N\Nc1ccccc1)=N/Nc1ccccc1 (stereo unspecified) :: fulfilled
CC(=O)Cc1ccc[cH-]1.[Fe+2].c1cc[cH-]c1 :: not fulfilled

With those in mind, consider the next compound.
Prompt: Is growth inhibition for Cc1c(C(=O)C(=O)c2ccccc2)c(C)c(C(=O)C(=O)c2ccccc2)c(C)c1C(=O)C(=O)c1ccccc1 at or above 20%?
Completion: not fulfilled

* * *

assay: NCI Yeast Anticancer Drug Screen. Data for the rad52 strain (AID 147);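 further: 0% = growth of vehicle-treated control cultures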; settings: S. cerevisiae rad52 mutant growth inhibition; at 3.7 µM; hits give high values
This is part of a sample that, as a whole, favours compounds with a hit. Of some 79,000 tested, about 15% had one in any assay.
Assign growth inhibition to each entry below.
One number for each entry, in %.

Sample answers from the record:
CCN(CC)CCNc1ccc([N+](=O)[O-])c2nc3ccc(OC)cc3c(N)c12 :: -13
COc1ccc(/C(C)=N/OC(=O)c2c(-c3ccccc3Cl)noc2C)cc1CN1CCOCC1 :: 23
CC(C(=O)N1C(=O)N(C(=O)[C@H](C)C(O)c2ccccc2)[C@H](c2ccccc2)[C@H]1c1ccccc1)[C@@H](O)c1ccccc1 (stereo not given in full) :: -2
CC(C)/C(Cl)=N\OC(=O)Nc1ccccc1F :: 9
CC(=O)Nc1ccc(/C=C(\C#N)c2ccc(C)cc2)cc1 :: 0
O=C1NC(=O)C2C3C=CC(C3)C12 (stereo not given) :: 0
Cc1ccc(S(=O)(=O)NNC(=S)Nc2cccc3ccccc23)cc1 :: 2
COc1ccc(OC)c2cc3ccccc3cc12 :: -9
[O-][n+]1c2ccc(O)cc2nc2ccc(Br)cc21 :: 16
Clc1ccccc1C1OC1c1ccccc1Cl (stereo not given) :: -38

For each entry beneath this line, provide reported growth inhibition.
1. O=C(Nc1ccc(Cl)cc1)OCC#CCCl
2. N#CN=Nc1cc(Cl)c(N=NC#N)cc1Cl
3. O=C(Nc1ccccc1)OCCc1ccc(Cl)c(Cl)c1
4. C(=C\c1ccccc1)/COc1ccccc1C(N1CCOCC1)n1nc2ccccc2n1 (stereo not given)
5. CC1=C(C)Cc2c(O)ccc(O)c2C1
6. COc1cccc2nc3ccccc3nc12
7. Cn1c2ccccc2c(=O)c2cc(NC(=O)CCCCC(=O)Nc3ccc4c(c3)c(=O)c3ccccc3n4C)ccc21
8. COc1cc(C2SCC(=O)N2c2ccc(-c3ccc(-n4c(-c5ccccc5)nc5ccccc5c4=O)cc3)cc2)cc(OC)c1OC (stereo not given)

Completion:
1. -1
2. -19
3. 10
4. 3
5. 12
6. 7
7. 6
8. -1

* * *

test: NCI Yeast Anticancer Drug Screen. Data for the rad50 strain (AID 155);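 further: 0% = growth of vehicle-only cultures of the same strain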; conditions: S. cerevisiae rad50 strain growth inhibition; at 33.0 µM; hits give high values
About 79,000 compounds went through this panel and 15% of them were active in at least one assay; those are over-represented in the sample as a whole.
observedProperty: growth inhibition (%)
Give bare numbers, in %.

CC(C)/C(Cl)=N\OC(=O)Nc1cccc(Cl)c1 :: -1
CN(N=O)N1C(=O)SCC(c2ccccc2)(c2ccccc2)C1=O :: 11
O=C(O)C1CCCCC1c1c2ccc(=O)c(O)c-2oc2c(O)c(O)ccc12 (stereo not given) :: 28
CCc1ncnc2cc(OCC3CO3)c(OC)cc12 (stereo not given) :: 85
CC(=O)Nc1ccc(/C=C(\C#N)c2ccc(C)cc2)cc1 :: -13
Cc1nc(-[n+]2nc(-c3ccncc3)nn2-c2ccccc2)sc1C :: 48
Cn1c(=O)c(-c2ccccc2)c(N=[N+]=[N-])c2ccccc21 :: 92
O=C1C=CC(=Nc2ccc3c(c2)Cc2cc(NC(=O)C(F)(F)F)ccc2-3)O1 :: 55

For each entry beneath this line, provide reported growth inhibition.
1. CCN(CC)CC[n+]1ccc2c(C)c3[nH]c4ccc(O)cc4c3c(C)c2c1
2. CC(C)(CN1CCCCC1)C(=O)CC(SCCS(=O)(=O)O)c1ccc(Br)cc1 (stereo not given)
3. Cc1ccc(-n2cc(-c3ccc(Cl)cc3)c(C#N)c2N)cc1
4. NCCNc1ccc(NCCN)c2c1C(=O)c1c(O)ccc(O)c1C2=O
5. Cc1ccc(CCC2=CCCc3c2ccc2ccccc32)cc1

Completion:
89
24
4
85
-1

* * *

test: NCI Yeast Anticancer Drug Screen. Data for the cln2 rad14 strain (AID 165);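 further: 0% = growth equal to vehicle treated cultures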; conditions: S. cerevisiae cln2 rad14 strain, at 5.0 µM (retest, dose inferred, filed as 0.5)
Compounds without any hit were thinned out: in the full panel of roughly 79,000, 15% have a hit. Calls of active or inactive are those of the source. No stated cut-off is given here; in the data, active means growth inhibition above about 70%; inactive means the rest.
# valid calls are yes (1) = active, no (0) = inactive; nothing else

Prompt: Test call for this compound, please: Cc1c(C(Cc2ccccc2N(C)C(=O)/C=C\C(=O)O)c2c[nH]c3ccccc23)c2ccccc2n1C (stereo unspecified)
Completion: no (0)

Prompt: Test call for this compound, please: CC(C)(CN1CCCCC1)C(=O)CC(SCCS(=O)(=O)O)c1ccc(Br)cc1 (stereo unspecified)
Completion: no (0)

Prompt: Test call for this compound, please: Cc1ccc(N)c(S)c1
Completion: no (0)

Sourced from PubChem BioAssay (NCI)
